# Test system: SK-MEL-2 melanoma
# Test Description: NCI tumour cell line growth inhibition, 48 h
Experimental Readout: TGI

Consider the compound shown here: CCOC(=O)NC(=O)c1cn(CCCCCCOC(=O)NCCCCCCNC(=O)OCCCCCCn2cc(C(=O)NC(=O)OCC)c(=O)[nH]c2=O)c(=O)[nH]c1=O What is its recorded TGI?
> 100 µM

Quick one: COc1ccc2nc3cc([N+](=O)[O-])ccc3c(Nc3ccc(S(=O)(=O)NC(C)=O)cc3)c2c1
> 100 µM

Quick one: Cc1ccc(C)c(NC(=O)CC/C(=N\NC(=O)c2c(O)ccc3ccccc23)C(C)C(=O)c2ccc(O)cc2)c1 (centres undefined)
> 100 µM

Quick one: N#Cc1c(-c2ccc(Cl)cc2)c2c(n(C3OC(CO)C(O)C(O)C3O)c1=S)CCC2 (centres undefined)
> 100 µM

Quick one: O=c1c2ccccc2nc(-c2ccccc2)n1NC1OC(CO)C(O)C(O)C1O (centres undefined)
> 100 µM

Quick one: COC(=O)c1c(OC(C)=O)ccc2c1c1c(n2C)C(=O)c2ccccc2C1=O
96.1 µM

Quick one: COc1cc2cc[n+]3c(C)c4cc(OC)c(OC)cc4c([O-])c3c2cc1OC
> 100 µM

Quick one: CC(C)(O)CC(=O)NCCn1ccc2ncnc(Nc3ccc(Oc4cccc(C(F)(F)F)c4)c(Cl)c3)c21
> 10 µM

Quick one: COc1ccc(-c2cc(-c3cc4cc(Br)ccc4nc3Cl)c(C#N)c(N)n2)cc1
> 12.5 µM

----------
Exercise: for every item that follows, state its recorded TGI.
# Test system: UACC-62 melanoma
# Test Description: NCI tumour cell line growth inhibition, 48 h

Consider the molecule shown here: [N-]=[N+]=NC(CI)c1cn([C@H]2C[C@H](O)[C@@H](CO)O2)c(=O)[nH]c1=O (stereo partly drawn) What is its recorded TGI?
> 100 µM

Quick one: CCN(C(=S)N[C@H](C(=O)N[C@@H](C)C(=O)OC)C(C)C)c1ccccc1
> 100 µM

Quick one: CC[C@H](CO)Nc1nc(NCc2ccccc2)n2ncc(C(C)C)c2n1
5.5 µM

Quick one: CC1(C)C2C=CC1(C)C1(CC2)OCCO1 (stereo not drawn)
> 100 µM

Quick one: Nc1nc(Nc2ccc(C3CCC(N4CCOCC4)CC3)cc2)nn1-c1ccccn1 (stereo not drawn)
> 88.3 µM

Quick one: O=C1C(=O)c2ccccc2C(O)=C1CCCc1ccc(Oc2ccccc2)cc1
15 µM

Quick one: COc1cc(C2C(Cl)C(=O)N2NC(=O)c2ccc(N)cc2)ccc1O (stereo not drawn)
> 100 µM

Quick one: CSc1n[nH]c(N)c1C(=O)Nc1ccc(C)cc1
> 100 µM

Quick one: C=C(C)C(O)C(O)c1c(OC)ccc2ccc(=O)oc12 (stereo not drawn)
> 100 µM

Quick one: COc1cccc(-n2ncc3c(N/N=C/c4ccncc4)ncnc32)c1
> 25 µM

Quick one: Cc1c2c(n(CCc3ccc(Cl)cc3)c1C)NC(c1ccccc1)C(C#N)S2(=O)=O (stereo not drawn)
> 100 µM

Quick one: Cc1[nH]c2ccccc2c1C1Cc2ccccc2N1C(=O)/C=C/C(=O)O (stereo not drawn)
> 100 µM

Quick one: COc1c(O)cc(O)c2c(=O)cc(-c3ccccc3)oc12
> 100 µM

Quick one: CC1(C)[C@H]2CC[C@]1(C)[C@H](OC(=O)NNC(=O)O[C@@H]1C[C@@H]3CC[C@@]1(C)C3(C)C)C2
38.8 µM

Quick one: CCOC(=O)c1cnc2oc3ccc(O)cc3c2c1-c1ccccc1
> 100 µM

Quick one: Cc1nc2c(sc(=S)n2-c2ccccc2)c(=O)[nH]1
> 100 µM

Quick one: CS[C@]12C(=O)C[C@@]3(C)[C@@H](CC[C@]3(O)C(=O)CO)[C@@H]1CCC1=CC(=O)CC[C@@]12C
> 100 µM

Quick one: C1=C2/CC[C@H](Sc3ccccc3)[C@H]2C2(CCCCC/1)OCCO2
62.4 µM

Quick one: CCc1ccc(NC(=O)COC(=O)c2cc([N+](=O)[O-])ccc2Sc2nnnn2C)cc1
48 µM

Quick one: COc1ccc(C(=O)C(c2ccc(OC)cc2)C2(O)C(=O)Nc3c2ccc(Cl)c3C)cc1 (stereo not drawn)
> 100 µM

Quick one: CC1=C(CO)C(=O)O[C@@H]([C@@H](C)[C@H]2CC[C@H]3[C@@H]4C[C@@H](O)[C@@]5(O)CC=CC(=O)[C@]5(C)[C@H]4CC[C@]23C)C1
> 100 µM

Quick one: Cc1cn(Cc2cnnn2CC2OC(n3cc(C)c(=O)[nH]c3=O)CC2O)c(=O)[nH]c1=O (stereo not drawn)
> 100 µM

Quick one: CC1(C)CC(C)(C)C1=NNC(N)=O
> 100 µM

Quick one: COc1ccc(OC)c(NC(=O)CCC/C(CC(=O)c2ccc(O)c(OC)c2)=N\Nc2ccc([N+](=O)[O-])cc2)c1
> 100 µM

Quick one: Cc1ccc(C)c(NC(=O)CC/C(=N\NC(=O)c2c(O)ccc3ccccc23)C(C)C(=O)c2ccc(O)cc2)c1 (stereo not drawn)
34.3 µM

Quick one: Nc1ncnc2c1nnn2C1CCC(CP(=O)(O)O)C1 (stereo not drawn)
> 100 µM

Quick one: CCCC(=O)NC(Nc1ccc(S(=O)(=O)Nc2nc(C)cc(C)n2)cc1)(C(F)(F)F)C(F)(F)F
> 100 µM

Quick one: CC(C)(Oc1ccc(Cl)cc1)C(=O)N(C(=O)N1CCC(c2ccccc2)CC1)c1ccccc1
> 100 µM

Quick one: CCCCCCCCCCCCCCCCCCNc1ccn(C2OC(COP(=O)(O)OCC3OC(n4cc(F)c(NCCCCCCCCCCCCCCCCCC)nc4=O)CC3O)C(O)C2O)c(=O)n1 (stereo not drawn)
> 100 µM

Quick one: CC(=O)Nc1ccc(OC2=CCN(C)CC2)cc1
> 100 µM

Quick one: COc1cc2cc[n+]3c(C)c4cc(OC)c(OC)cc4c([O-])c3c2cc1OC
> 100 µM

Quick one: COC(=O)[C@H]1CO[C@H]2C/C(C)=C/CC/C(C)=C/CC[C@@]3(C)O[C@@H]3C[C@H]21
18.2 µM

Quick one: COC(=O)C(Cc1ccccc1)NP(=O)(O)OCC1OC(n2cc(F)c(=O)[nH]c2=O)CC1O (stereo not drawn)
> 100 µM

Quick one: CCNC(=O)c1cc(/C=C/c2ccc([N+](=O)[O-])o2)nc2ccccc12
> 100 µM

Quick one: COc1cc(/C=C2/C[C@H]3[C@@H]4CC=C5C[C@@H](OC(C)=O)CC[C@]5(C)[C@H]4CC[C@]3(C)NC2=O)cc(OC)c1OC
47 µM

Quick one: CC(C)c1cccc2sc(NC(=O)C(=O)C(C#N)c3cccc4ccccc34)nc12 (stereo not drawn)
> 100 µM

Quick one: Cc1ccc(S(=O)(=O)Nc2cccc3[nH]c(C(F)(F)F)nc23)cc1
> 54 µM

Quick one: COc1ccc(-c2cc(-c3ccc(Nc4ccnc5cc(Cl)ccc45)cc3)[nH]c(=O)c2C#N)c2ccccc12
46.7 µM
